Hey, just so you know, these numbers are from patent US4289762A.

// reported pKi for each item listed
Molecular target: aromatase (Homo sapiens, UniProt P11511)
Construct: microsomal fraction isolated from human placenta
Sequence (P11511 1-503): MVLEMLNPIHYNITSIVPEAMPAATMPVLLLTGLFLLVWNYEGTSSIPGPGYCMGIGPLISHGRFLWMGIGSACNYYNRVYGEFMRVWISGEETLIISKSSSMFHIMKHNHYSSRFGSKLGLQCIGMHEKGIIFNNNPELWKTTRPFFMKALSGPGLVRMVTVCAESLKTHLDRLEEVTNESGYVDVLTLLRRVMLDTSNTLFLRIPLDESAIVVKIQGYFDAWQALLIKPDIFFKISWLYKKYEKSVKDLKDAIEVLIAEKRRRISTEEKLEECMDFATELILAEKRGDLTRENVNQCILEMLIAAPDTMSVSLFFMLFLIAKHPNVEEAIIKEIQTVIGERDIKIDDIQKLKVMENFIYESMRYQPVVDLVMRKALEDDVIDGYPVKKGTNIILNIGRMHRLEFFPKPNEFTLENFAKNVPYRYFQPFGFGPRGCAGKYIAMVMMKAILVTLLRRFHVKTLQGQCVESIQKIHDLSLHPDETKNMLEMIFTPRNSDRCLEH
Assay: biochemical
Details: time-dependent assay, Table 2; read-out: Apparent Ki
Remember, pKi is on a log scale: it is -log10 of the molar concentration.

- C[C@]12C=CC(=O)C=C1C=C[C@@H]1[C@@H]2CC[C@]2(C)C(=O)CC[C@@H]12 [Androsta-1,4,6-triene-3,17-dione]: 6.96

Kindly review the next molecule as well.
## Task Please tell me: pKi of C[C@]12C=CC(=O)C=C1CC[C@@H]1[C@@H]2CC[C@]2(C)OC(=O)CC[C@@H]12 [1-dehydrotestololactone] , system aromatase (Homo sapiens, UniProt P11511)?
## Result 5.10

###

biological target: aromatase (Homo sapiens, UniProt P11511); construct: microsomal fraction isolated from human placenta; assay: biochemical
// reported IC50 for each item listed
Report only the number, with the unit nM understood.

* C[C@]12C=CC(=O)C=C1CC[C@@H]1[C@@H]2CC[C@]2(C)OC(=O)CC[C@@H]12 [1-dehydrotestololactone] | 2500

## Task Request the reported IC50 associated with "C[C@]12C=CC(=O)C=C1C=C[C@@H]1[C@@H]2CC[C@]2(C)C(=O)CC[C@@H]12"
## Result 100
